Measured MIC, listed per entry.
# System: A. baumannii ATCC 19606
# Construct: ATCC 19606
# ASSAY: microbe, parasite or virus in culture
# Design: broth microdilution in Mueller-Hinton broth, minimum inhibitory concentration
# EXPERIMENTAL_SETUP: Acinetobacter baumannii, ATCC19606, 18 h
VALUE_TYPE: MIC

COMPOUND	MEAS_VALUE
COC1c2c(cc(O)c3c2C(=O)c2c(C4c5c(cc(O)c6c5C(=O)c5cccc(O)c5-6)C(=O)C5(C)OC45)ccc(O)c2-3)C(=O)C2(C)OC12 (centres unmarked)	> 64 µg/mL
Cc1ccc2c3c(c(O)cc2c1O)-c1c(O)cccc1C3=O	> 64 µg/mL
Cc1cc(O)cc(O)c1C(=O)c1c(O)cccc1Cc1cc2c(c(=O)o1)C1c3c(cc(O)c4c3C(=O)c3cccc(O)c3-4)C(=O)C(C)(O2)C1O (centres unmarked)	> 64 µg/mL
COc1cc(Cc2cnc(N)nc2N)cc(OC)c1OC	64 µg/mL
CC12OC1C(O)c1c(cc(O)c3c1C(=O)c1c(C4c5c(cc(O)c6c5C(=O)c5cccc(O)c5-6)C(=O)C5(C)OC45)ccc(O)c1-3)C2=O (centres unmarked)	> 64 µg/mL

====

# Test system: M. Luteus SCSIO ML01
# Construct: SCSIO ML01
# ASSAY: microbe, parasite or virus in culture
# Parameters: broth microdilution in Mueller-Hinton broth, minimum inhibitory concentration
# EXPERIMENTAL_SETUP: Micrococcus luteus, 18 h

COMPOUND	TESTED_TARGET	MIC
Cc1cc(O)cc(O)c1C(=O)c1c(O)cccc1Cc1cc2c(c(=O)o1)C1c3c(cc(O)c4c3C(=O)c3cccc(O)c3-4)C(=O)C(C)(O2)C1O (centres unmarked)	M. Luteus SCSIO ML01	> 64 µg/mL
COc1cc(Cc2cnc(N)nc2N)cc(OC)c1OC	M. Luteus SCSIO ML01	1 µg/mL
CC(=O)NN1c2c(c3c(c4c2C(=O)C(C)(O)C=C4)C(=O)c2cccc(O)c2-3)OC2C1c1c(cc(O)c3c1C(=O)c1cccc(O)c1-3)C(=O)C2(C)O (centres unmarked)	M. Luteus SCSIO ML01	> 64 µg/mL
C[C@]12O[C@H]1[C@H](Nc1ccc(C(=O)O)cc1)c1c(cc(O)c3c1C(=O)c1cccc(O)c1-3)C2=O	M. Luteus SCSIO ML01	> 64 µg/mL
COC1c2c(cc(O)c3c2C(=O)c2c(C4c5c(cc(O)c6c5C(=O)c5cccc(O)c5-6)C(=O)C5(C)OC45)ccc(O)c2-3)C(=O)C2(C)OC12 (centres unmarked)	M. Luteus SCSIO ML01	> 64 µg/mL
